study.system: Tubulin (Sus scrofa) (UniProt P02554+P02550)
Sequence (P02550 whole entry, looked up): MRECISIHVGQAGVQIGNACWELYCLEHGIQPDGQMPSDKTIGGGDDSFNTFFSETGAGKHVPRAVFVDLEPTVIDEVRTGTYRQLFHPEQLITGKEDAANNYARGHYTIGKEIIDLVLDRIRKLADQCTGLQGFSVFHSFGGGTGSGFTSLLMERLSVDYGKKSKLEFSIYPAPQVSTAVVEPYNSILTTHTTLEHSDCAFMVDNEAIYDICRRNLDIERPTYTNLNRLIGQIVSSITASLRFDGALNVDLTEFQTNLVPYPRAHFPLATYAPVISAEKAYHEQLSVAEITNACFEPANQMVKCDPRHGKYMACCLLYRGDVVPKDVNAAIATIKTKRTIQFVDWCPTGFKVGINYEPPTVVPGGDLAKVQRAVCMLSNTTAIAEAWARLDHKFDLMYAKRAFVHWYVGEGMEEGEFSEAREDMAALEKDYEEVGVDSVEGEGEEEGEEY
Sequence (P02554 whole entry, looked up): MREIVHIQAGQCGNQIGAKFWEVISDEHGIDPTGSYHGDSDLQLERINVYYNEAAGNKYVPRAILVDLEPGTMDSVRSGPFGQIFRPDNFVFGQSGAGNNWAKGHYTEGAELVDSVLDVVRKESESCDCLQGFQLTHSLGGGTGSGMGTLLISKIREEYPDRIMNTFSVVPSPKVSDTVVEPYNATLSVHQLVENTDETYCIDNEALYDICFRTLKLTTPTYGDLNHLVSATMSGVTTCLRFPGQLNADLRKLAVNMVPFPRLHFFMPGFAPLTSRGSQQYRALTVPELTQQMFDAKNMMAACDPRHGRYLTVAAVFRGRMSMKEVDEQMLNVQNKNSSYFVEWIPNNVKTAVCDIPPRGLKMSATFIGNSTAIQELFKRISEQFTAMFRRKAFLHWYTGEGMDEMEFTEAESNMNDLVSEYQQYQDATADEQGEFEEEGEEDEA
measurement.protocol: Inhibition of porcine brain tubulin polymerization at 100 uM measured for 1 hr by fluorescence assay
Active and inactive are the calls of the source. No cut-off for these calls is given here.

{"columns": ["query.smiles", "inhibition"],
 "data": [
  ["COc1ccc(-c2cc(C(=O)O)c3c(OC)c(OC)c(OC)cc3n2)cc1", "Active"],
  ["COc1cc(-c2cc(C(=O)O)c3c(OC)c(OC)c(OC)cc3n2)ccc1O", "Active"],
  ["COc1cc2nc(-c3ccc(O)cc3O)cc(C(=O)O)c2c(OC)c1OC", "Active"]
]}

The measurements presented in this section are drawn from ChEMBL document CHEMBL3779766.
